compounds and their reported half-life at 1 μM
# RUN DESCRIPTION: Assay C: Metabolic stability in human liver microsomes (Human MST)
# Type: in vitro ADME
# CONDITIONS USED: pooled human liver microsomes, pH 7.6; human liver microsomes 1 mg/mL, compound 1 μM, 37° C., NADPH; read-out: Human MST t1/2

[
  {
    "COMPOUND": "CCN(C(=O)c1c(F)cccc1-n1nccn1)[C@@H](C)COc1ncc(C(F)(F)F)cc1F [Example 56]",
    "READING QUALIFIER": "=",
    "half-life at 1 μM / min": 48
  },
  {
    "COMPOUND": "CCN(C(=O)c1ccc(C)cc1-c1nnc(C)o1)[C@@H](C)COc1ccc(OC(F)(F)F)cn1 [Example 121]",
    "READING QUALIFIER": "=",
    "half-life at 1 μM / min": 15
  },
  {
    "COMPOUND": "CCN(C(=O)c1ccc(F)cc1-n1nccn1)[C@@H](C)COc1ccc(C(F)(F)F)cn1 [Example 1]",
    "READING QUALIFIER": "=",
    "half-life at 1 μM / min": 38
  },
  {
    "COMPOUND": "CCN(C(=O)c1cc(C#N)ccc1-n1nccn1)[C@@H](C)COc1ncc(C(F)(F)F)cc1F [Example 57]",
    "READING QUALIFIER": ">",
    "half-life at 1 μM / min": 130
  },
  {
    "COMPOUND": "CCN(C(=O)c1ccc(F)cc1-c1nnc(C)o1)[C@@H](C)COc1ccc(C(F)(F)F)cn1 [Example 14]",
    "READING QUALIFIER": ">",
    "half-life at 1 μM / min": 130
  }
]

---

# RUN DESCRIPTION: Assay C: Metabolic stability in human liver microsomes (Human MST)
# Assay type: in vitro ADME
# CONDITIONS USED: pooled human liver microsomes, pH 7.6; human liver microsomes 1 mg/mL, compound 1 μM, 37° C., NADPH; read-out: Human MST t1/2
Response field class: enum, chosen by comparing half-life at 1 μM against group 1 (below 30 min), group 2 (30 min to below 50 min), group 3 (50 min or more)

[
  {
    "INPUT SMILES": "CCN(C(=O)c1cccc(F)c1-n1nccn1)[C@@H](C)COc1ccc(Cl)cn1",
    "CLASS": "group 3"
  },
  {
    "INPUT SMILES": "CCN(C(=O)c1ccc(F)cc1-c1nnc(C)o1)[C@@H](C)COc1ncc(C(F)(F)F)cc1F",
    "CLASS": "group 3"
  },
  {
    "INPUT SMILES": "CCN(C(=O)c1ccccc1-c1ncccn1)[C@@H](C)COc1ccc(C(F)(F)F)cn1",
    "CLASS": "group 2"
  },
  {
    "INPUT SMILES": "CCN(C(=O)c1ccc(Cl)cc1-n1nccn1)[C@@H](C)COc1ccc(Cl)cn1",
    "CLASS": "group 1"
  },
  {
    "INPUT SMILES": "CCN(C(=O)c1cc(F)ccc1-n1nccn1)[C@@H](C)COc1ncc(C(F)(F)F)cc1F",
    "CLASS": "group 2"
  },
  {
    "INPUT SMILES": "CCN(C(=O)c1cc(F)cc(F)c1-n1nccn1)[C@@H](C)COc1ncc(C(F)(F)F)cc1F",
    "CLASS": "group 3"
  },
  {
    "INPUT SMILES": "CCN(C(=O)c1cccc(F)c1-n1nccn1)[C@@H](C)COc1ncc(C(F)(F)F)cc1Cl",
    "CLASS": "group 3"
  },
  {
    "INPUT SMILES": "CCN(C(=O)c1ccccc1-n1nccn1)[C@@H](C)COc1ccc(Cl)cn1",
    "CLASS": "group 2"
  },
  {
    "INPUT SMILES": "CCN(C(=O)c1c(F)cccc1-c1ncccn1)[C@@H](C)COc1ccc(C(F)(F)F)cn1",
    "CLASS": "group 2"
  },
  {
    "INPUT SMILES": "CCN(C(=O)c1cccc(F)c1-c1nnc(C)o1)[C@@H](C)COc1ccc(Cl)cn1",
    "CLASS": "group 3"
  },
  {
    "INPUT SMILES": "CCN(C(=O)c1cccc(F)c1-c1ncccn1)[C@@H](C)COc1ccc(Br)cn1",
    "CLASS": "group 3"
  },
  {
    "INPUT SMILES": "CCN(C(=O)c1cc(F)ccc1-n1nccn1)[C@@H](C)COc1ccc(Cl)cn1",
    "CLASS": "group 3"
  },
  {
    "INPUT SMILES": "CCN(C(=O)c1cccc(C)c1-c1nnc(C)o1)[C@@H](C)COc1ncc(C(F)(F)F)cc1F",
    "CLASS": "group 1"
  },
  {
    "INPUT SMILES": "CCN(C(=O)c1ccc(C#N)cc1-n1nccn1)[C@@H](C)COc1ncc(C(F)(F)F)cc1F",
    "CLASS": "group 2"
  },
  {
    "INPUT SMILES": "CCN(C(=O)c1ccc(C#N)cc1-n1nccn1)[C@@H](C)COc1ccc(C(F)(F)F)cn1",
    "CLASS": "group 3"
  },
  {
    "INPUT SMILES": "CCN(C(=O)c1ccc(Cl)cc1-n1nccn1)[C@@H](C)COc1ccc(C(F)(F)F)cn1",
    "CLASS": "group 1"
  },
  {
    "INPUT SMILES": "CCN(C(=O)c1cc(F)c(F)cc1-n1nccn1)[C@@H](C)COc1ncc(C(F)(F)F)cc1F",
    "CLASS": "group 2"
  },
  {
    "INPUT SMILES": "CCN(C(=O)c1cc(F)ccc1-c1ncccn1)[C@@H](C)COc1ccc(Br)cn1",
    "CLASS": "group 3"
  },
  {
    "INPUT SMILES": "CCN(C(=O)c1cccc(F)c1-n1nccn1)[C@@H](C)COc1ccc(C(F)(F)F)cn1",
    "CLASS": "group 3"
  },
  {
    "INPUT SMILES": "CCN(C(=O)c1ccccc1-n1nccn1)[C@@H](C)COc1ncc(C(F)(F)F)cc1F",
    "CLASS": "group 1"
  },
  {
    "INPUT SMILES": "CCN(C(=O)c1ccccc1-c1ccc(=O)n(C)c1)[C@@H](C)COc1ccc(C(F)(F)F)cn1",
    "CLASS": "group 2"
  },
  {
    "INPUT SMILES": "CCN(C(=O)c1ccccc1-c1cnn(C)c1)[C@@H](C)COc1ccc(C(F)(F)F)cn1",
    "CLASS": "group 1"
  },
  {
    "INPUT SMILES": "CCN(C(=O)c1cc(F)cc(F)c1-n1nccn1)[C@@H](C)COc1ccc(OC(F)(F)F)cn1",
    "CLASS": "group 3"
  },
  {
    "INPUT SMILES": "CCN(C(=O)c1cccc(Cl)c1-n1nccn1)[C@@H](C)COc1ccc(C(F)(F)F)cn1",
    "CLASS": "group 2"
  },
  {
    "INPUT SMILES": "CCN(C(=O)c1cccc(C)c1-c1nnc(C)o1)[C@@H](C)COc1ccc(Cl)cn1",
    "CLASS": "group 1"
  },
  {
    "INPUT SMILES": "CCN(C(=O)c1ccc(Cl)cc1-n1nccn1)[C@@H](C)COc1ncc(C(F)(F)F)cc1F",
    "CLASS": "group 1"
  },
  {
    "INPUT SMILES": "CCN(C(=O)c1c(-n2nccn2)ccc(C)c1F)[C@@H](C)COc1ncc(C(F)(F)F)cc1F",
    "CLASS": "group 1"
  },
  {
    "INPUT SMILES": "CCN(C(=O)c1ccc(C)cc1-c1ncccn1)[C@@H](C)COc1ccc(C(F)(F)F)cn1",
    "CLASS": "group 1"
  },
  {
    "INPUT SMILES": "CCN(C(=O)c1cc(F)cc(F)c1-n1nccn1)[C@@H](C)COc1ccc(Cl)cn1",
    "CLASS": "group 2"
  },
  {
    "INPUT SMILES": "CCN(C(=O)c1ccccc1-c1cncc(C#N)c1)[C@@H](C)COc1ccc(C(F)(F)F)cn1",
    "CLASS": "group 1"
  }
]
